ASSAYED TARGET: RARα receptors (Homo sapiens, UniProt P10276)
Sequence (P10276 1-462): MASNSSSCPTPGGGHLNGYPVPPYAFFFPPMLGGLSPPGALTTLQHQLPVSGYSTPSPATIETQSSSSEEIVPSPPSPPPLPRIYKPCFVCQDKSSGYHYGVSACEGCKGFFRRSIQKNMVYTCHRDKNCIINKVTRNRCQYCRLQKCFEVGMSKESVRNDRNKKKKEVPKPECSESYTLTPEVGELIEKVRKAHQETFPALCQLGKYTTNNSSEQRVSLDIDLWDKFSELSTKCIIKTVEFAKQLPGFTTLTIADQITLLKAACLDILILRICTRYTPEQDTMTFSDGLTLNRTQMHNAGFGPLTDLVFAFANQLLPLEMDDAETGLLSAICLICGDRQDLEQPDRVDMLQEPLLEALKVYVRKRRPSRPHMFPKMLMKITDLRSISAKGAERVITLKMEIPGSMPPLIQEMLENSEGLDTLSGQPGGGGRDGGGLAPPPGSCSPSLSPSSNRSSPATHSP
MEASURED METRIC: pKd
When answering, recall that pKd equals minus log10 of the concentration in mol/L, and write that number alone.

Problem: Given the entry CC1(C)CCC(C)(C)c2c1cc(C(=O)Nc1cc(F)c(C(=O)O)c(F)c1)c(O)c2Cl [Compound 2] , report its measured pKd.
Solution: 8.30

###

ASSAYED TARGET: RARγ receptors (Homo sapiens, UniProt P13631)
Sequence (P13631 185-419 limits assumed): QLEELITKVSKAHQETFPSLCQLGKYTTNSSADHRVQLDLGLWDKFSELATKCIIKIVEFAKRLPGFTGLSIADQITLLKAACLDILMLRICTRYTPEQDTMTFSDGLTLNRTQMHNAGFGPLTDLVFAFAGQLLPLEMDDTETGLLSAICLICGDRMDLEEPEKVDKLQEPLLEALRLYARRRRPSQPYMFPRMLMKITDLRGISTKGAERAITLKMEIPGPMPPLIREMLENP
TEST PROTOCOL: chimeric receptor transactivation assay, RARγ
Type: cell-based
CONDITIONS USED: agonist activity
MEASURED METRIC: EC50

Problem: Could you tell me which EC50 is on file for CC1(C)CCC(C)(C)c2c1cc(C(=O)Nc1cc(F)c(C(=O)O)c(F)c1)c(O)c2Cl ?
Solution: > 10 µM

###

ASSAYED TARGET: RARβ receptors (Homo sapiens, UniProt P10826)
Sequence (P10826 183-417 limits assumed): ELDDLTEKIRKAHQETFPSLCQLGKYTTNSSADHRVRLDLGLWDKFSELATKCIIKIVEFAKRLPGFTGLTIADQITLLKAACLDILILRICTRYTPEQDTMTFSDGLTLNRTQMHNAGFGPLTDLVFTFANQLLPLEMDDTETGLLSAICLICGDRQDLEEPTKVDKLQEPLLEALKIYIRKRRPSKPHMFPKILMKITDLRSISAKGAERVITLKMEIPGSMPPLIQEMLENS
TEST PROTOCOL: chimeric receptor transactivation assay, RARβ
CONDITIONS USED: agonist activity
MEASURED METRIC: EC50

Problem: Entry CC1(C)CCC(C)(C)c2c1cc(C(=O)Nc1cc(F)c(C(=O)O)c(F)c1)c(O)c2Cl [Compound 2] : reported EC50 = ?
Solution: > 10 µM

###

ASSAYED TARGET: RARα receptors (Homo sapiens, UniProt P10276)
TEST PROTOCOL: chimeric receptor transactivation assay, RARα
MEASURED METRIC: pEC50
Hey, just a heads up that pEC50 is the negative log base 10 of the concentration in molar.

Problem: // query pEC50 value for entry CC1(C)CCC(C)(C)c2c1cc(C(=O)Nc1cc(F)c(C(=O)O)c(F)c1)c(O)c2Cl
Solution: 6.74
